// provenance: ChEMBL document CHEMBL4483862

system: Plasmodium berghei; experiment: Luciferase/luciferin-expressing antifolate-resistant parasites were used to infect a culture of HepG2 cells that were pre-incubated with compounds. Infected hepatocytes emit light due to the luciferase reaction. Assay results are presented as the percent inhibition of light emission compared to control. […]; assay type: functional; settings: sporozoite, HEPG2TOX_HILL_SLOPE 2.6, HEPG2TOX_R_SQUARED 0.936, PBLUC_HILL_SLOPE 3.74, PBLUC_R_SQUARED 0.417, read-out: LUCIFERASE INFECTION ASSAY - IC50
METRIC: IC50 (µM)
Only the number, expressed in µM, is required.

-- ask Endpoint output: IC50 of Cc1ccccc1-c1cn2c(-c3cccc(O)c3)cnc2cn1 . Value?
-- reply 4.82

###

test system: Plasmodium berghei; experiment: Luciferase/luciferin-expressing antifolate-resistant parasites were used to infect a culture of HepG2 cells that were pre-incubated with compounds. Infected hepatocytes emit light due to the luciferase reaction. Assay results are presented as the percent inhibition of light emission compared to control. […]; format: functional; settings: sporozoite, PBLUC_HILL_SLOPE 28.5, PBLUC_R_SQUARED 0.262, read-out: LUCIFERASE INFECTION ASSAY - IC50
METRIC: pIC50
Worth noting: pIC50 values are minus log10 of concentrations stated in mol/L.

-- ask // lookup pIC50 for c1ccc(-c2cc(-c3ccc(NC4=NCCCS4)cc3)nc3ccccc23)cc1
-- reply 5.06

###

test system: Plasmodium berghei; assay: Luciferase/luciferin-expressing antifolate-resistant parasites were used to infect a culture of HepG2 cells that were pre-incubated with compounds. Infected hepatocytes emit light due to the luciferase reaction. Assay results are presented as the percent inhibition of light emission compared to control. […]; format: functional; details: sporozoite, PBLUC_HILL_SLOPE 4, PBLUC_R_SQUARED 0.258, read-out: LUCIFERASE INFECTION ASSAY - IC50
METRIC: pIC50
The read-out pIC50 is expressed as -log10 of concentration in moles per litre.

-- ask Request the reported pIC50 associated with N#Cc1ccc(-c2cnc3cnc(-c4cccc(Cl)c4)cn23)cc1
-- reply 5.09

###

tested on: Plasmodium berghei; assay: Luciferase/luciferin-expressing antifolate-resistant parasites were used to infect a culture of HepG2 cells that were pre-incubated with compounds. Infected hepatocytes emit light due to the luciferase reaction. Assay results are presented as the percent inhibition of light emission compared to control. […]; assay type: functional; details: sporozoite, HEPG2TOX_HILL_SLOPE 9.29, HEPG2TOX_R_SQUARED 0.957, PBLUC_HILL_SLOPE 5.5, PBLUC_R_SQUARED 0.698, read-out: LUCIFERASE INFECTION ASSAY - IC50
METRIC: IC50

-- ask Name the reported IC50 value associated with the compound Cc1ccc(/C=N/Nc2nn3c(=O)c4ccccc4nc3c3ccccc23)o1
-- reply 5.7 µM

###

system: Plasmodium berghei; assay: Luciferase/luciferin-expressing antifolate-resistant parasites were used to infect a culture of HepG2 cells that were pre-incubated with compounds. Infected hepatocytes emit light due to the luciferase reaction. Assay results are presented as the percent inhibition of light emission compared to control. […]; assay type: functional; details: sporozoite, PBLUC_HILL_SLOPE 68.6, PBLUC_R_SQUARED 0.538, read-out: LUCIFERASE INFECTION ASSAY - IC50
METRIC: pIC50
Conceptually, pIC50 converts a concentration in mol/L into minus its log10.

-- ask Recorded pIC50 of C=CCN(c1ccccc1OC)S(=O)(=O)c1cccc(C(=O)Oc2c(Cl)cc(Cl)c3ccc(C)nc23)c1 , please.
-- reply 5.23

###

system: Plasmodium berghei; test: Luciferase/luciferin-expressing antifolate-resistant parasites were used to infect a culture of HepG2 cells that were pre-incubated with compounds. Infected hepatocytes emit light due to the luciferase reaction. Assay results are presented as the percent inhibition of light emission compared to control. […]; type: functional; details: sporozoite, HEPG2TOX_HILL_SLOPE 10.9, HEPG2TOX_R_SQUARED 0.151, read-out: LUCIFERASE INFECTION ASSAY - IC50
METRIC: IC50

-- ask Query: IC50; subject: CC(C)N(C(=O)NC(=O)Nc1nc(-c2ccccc2)cs1)S(C)(=O)=O
-- reply > 10 µM

###

system: Plasmodium berghei; test: Luciferase/luciferin-expressing antifolate-resistant parasites were used to infect a culture of HepG2 cells that were pre-incubated with compounds. Infected hepatocytes emit light due to the luciferase reaction. Assay results are presented as the percent inhibition of light emission compared to control. […]; type: functional; details: sporozoite, HEPG2TOX_HILL_SLOPE 11.7, HEPG2TOX_R_SQUARED 0.856, PBLUC_HILL_SLOPE 3.58, PBLUC_R_SQUARED 0.522, read-out: LUCIFERASE INFECTION ASSAY - IC50
METRIC: pIC50
The scale used: pIC50 is minus the common logarithm of the concentration in molar units.

-- ask Which measured pIC50 belongs to Cc1ccc(SC(=O)c2c(C)noc2-c2ccc(Cl)cc2)cc1 , tested on Plasmodium berghei?
-- reply 5.12

###

tested on: Plasmodium berghei; test: Luciferase/luciferin-expressing antifolate-resistant parasites were used to infect a culture of HepG2 cells that were pre-incubated with compounds. Infected hepatocytes emit light due to the luciferase reaction. Assay results are presented as the percent inhibition of light emission compared to control. […]; assay type: functional; conditions: sporozoite, FFLUC_HILL_SLOPE 0.212, FFLUC_R_SQUARED 0.0258, read-out: LUCIFERASE INFECTION ASSAY - IC50
METRIC: IC50

-- ask Under Plasmodium berghei: IC50 value of COc1ccc(CC2(Cc3ccc(OC)c(F)c3)C(=O)N(c3ccccc3C)C(=O)c3ccccc32)cc1F ?
-- reply > 10 µM

###

test system: Plasmodium berghei; assay: Luciferase/luciferin-expressing antifolate-resistant parasites were used to infect a culture of HepG2 cells that were pre-incubated with compounds. Infected hepatocytes emit light due to the luciferase reaction. Assay results are presented as the percent inhibition of light emission compared to control. […]; type: functional; conditions: sporozoite, PBLUC_HILL_SLOPE 2.98, PBLUC_R_SQUARED 0.795, read-out: LUCIFERASE INFECTION ASSAY - IC50
METRIC: IC50 (nM)
Just the number please, in nM, no unit attached.

-- ask # get_value(readout='IC50', item= CN(Cc1c(F)cccc1Cl)C(=O)COc1ccc2[nH]c3ccccc3c(=O)c2c1 )
-- reply 530

###

system: Plasmodium berghei; experiment: Luciferase/luciferin-expressing antifolate-resistant parasites were used to infect a culture of HepG2 cells that were pre-incubated with compounds. Infected hepatocytes emit light due to the luciferase reaction. Assay results are presented as the percent inhibition of light emission compared to control. […]; assay type: functional; conditions: sporozoite, HEPG2TOX_HILL_SLOPE 6.11, HEPG2TOX_R_SQUARED 0.316, PBLUC_HILL_SLOPE 1.35, PBLUC_R_SQUARED 0.486, read-out: LUCIFERASE INFECTION ASSAY - IC50
METRIC: IC50 (µM)
Please give a number only; it is taken to be in µM.

-- ask Field request: IC50 | item: Cc1ccc(-c2nnc3n2CCCCC3)cc1NC(=O)c1ccc([N+](=O)[O-])o1
-- reply 6.12

###

tested on: Plasmodium berghei; experiment: Luciferase/luciferin-expressing antifolate-resistant parasites were used to infect a culture of HepG2 cells that were pre-incubated with compounds. Infected hepatocytes emit light due to the luciferase reaction. Assay results are presented as the percent inhibition of light emission compared to control. […]; format: functional; conditions: sporozoite, PBLUC_HILL_SLOPE 1.22, PBLUC_R_SQUARED 0.106, read-out: LUCIFERASE INFECTION ASSAY - IC50
METRIC: IC50

-- ask Name the reported IC50 value associated with the molecule O=C(O)C1C2C=CC(O2)C1C(=O)Nc1ccc(OC(F)(F)F)cc1 (stereo unspecified)
-- reply > 9.61 µM

###

test system: Plasmodium berghei; assay: Luciferase/luciferin-expressing antifolate-resistant parasites were used to infect a culture of HepG2 cells that were pre-incubated with compounds. Infected hepatocytes emit light due to the luciferase reaction. Assay results are presented as the percent inhibition of light emission compared to control. […]; assay type: functional; details: sporozoite, HEPG2TOX_HILL_SLOPE 15, HEPG2TOX_R_SQUARED 0.948, PBLUC_HILL_SLOPE 0.935, PBLUC_R_SQUARED 0.804, read-out: LUCIFERASE INFECTION ASSAY - IC50
METRIC: IC50 (nM)
# number only, unit nM dropped from output

-- ask Looking for the measured IC50 of Nc1c(C(=O)c2ccc3c(c2)NC(=O)CO3)sc2c1c(=O)[nH]c(=O)n2Cc1ccccc1 , can you help?
-- reply 1580

###

tested on: Plasmodium berghei; test: Luciferase/luciferin-expressing antifolate-resistant parasites were used to infect a culture of HepG2 cells that were pre-incubated with compounds. Infected hepatocytes emit light due to the luciferase reaction. Assay results are presented as the percent inhibition of light emission compared to control. […]; type: functional; details: sporozoite, read-out: LUCIFERASE INFECTION ASSAY - IC50
METRIC: IC50

Recorded IC50, per entry:
> print(dat)
                                   compound     result
1  CNc1nc2cnc(Nc3cccc(N(C)C)c3)cc2n1-c1ccccc1    > 10 µM
2  Cc1cc(C)cc(NC(=O)C(Sc2nc(=O)cc(N)[nH]2)c2ccccc2)c1 (configuration not stated)    > 10 µM
3  CC(C)=CC(=O)Nc1scc(-c2ccccc2)c1C(=O)OCC(=O)Nc1cc(C)on1    > 10 µM
4  CCOc1ccc(-c2nnc(SCC(=O)Nc3ccccc3C(=O)NCc3ccccc3)o2)cc1    4.44 µM
5    CSc1sc(-c2nc(C(C)(C)C)cs2)c(C)c1C(C)=O  > 10.1 µM
6  CNS(=O)(=O)c1ccc(NC(=O)c2ccc3[nH]c(C)c(C)c3c2)cc1    > 10 µM

-- ask Fill blank: measured IC50 of the compound CN(C)c1cccc(-c2cnc3cnc(-c4ccccc4)cn23)c1 is ____.
-- reply > 10.5 µM

-- ask // repeat for Cc1[nH]c(C(=O)N2CCN(CC3CCCCC3)CC2)c(C)c1C(=O)OC(C)C and report
-- reply > 10 µM

-- ask // repeat for COc1ccc(-n2ccnc2SCc2nc(N)c3ccccc3n2)cc1 and report
-- reply > 10 µM

-- ask Can you check COc1ccc(C)cc1-n1c(=O)c2ccccc2n2c(SC)nnc12 next?
-- reply > 10 µM

-- ask Next compound: Cc1cccc2c(=O)n(CC(=O)NCCCCOc3ccc(F)cc3)cnc12
-- reply > 10 µM

-- ask And for CCc1ccc(-c2nc(Cn3cnc4ccccc4c3=O)cs2)cc1 ?
-- reply > 10 µM

-- ask Moving on to C/C(=N\c1cc(C(F)(F)F)ccc1Cl)Nc1ccc(C)cc1
-- reply > 10 µM

-- ask Cool, now Cc1cc(=O)c(C(=O)Nc2cc(C(F)(F)F)ccc2N2CCCCC2)nn1-c1ccccc1Cl
-- reply > 10 µM

-- ask What about this compound? CSc1sc(Cl)c2c1/C(=N\O)CC(C)(C)C2
-- reply > 12 µM

-- ask What would you report for CN(C)c1cccc(-c2cnc3sc(NCc4ccncc4)nn23)c1 ?
-- reply > 9.42 µM

-- ask Continue with O=C(CCc1cccnc1)Nc1nc(-c2ccc3c(c2)OCCO3)cs1
-- reply > 10 µM

-- ask Try the compound COc1cc(C(=O)N(C)Cc2ccccc2N2CCOCC2)cc(OC)c1OC
-- reply > 10 µM
